subject_of_test: Interleukin-7 (UniProt P13232)
Sequence: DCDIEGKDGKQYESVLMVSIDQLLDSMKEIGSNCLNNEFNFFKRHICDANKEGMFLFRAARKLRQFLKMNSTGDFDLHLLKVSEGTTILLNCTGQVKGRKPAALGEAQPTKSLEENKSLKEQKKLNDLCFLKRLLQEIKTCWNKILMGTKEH
assay_procedure: filter
condition: 5-BrdU replaces T; apparent photocrosslink KD; plateau 50%
measured_attribute: Kd (µM)
Give just the numeric value; µM need not be written.

Which value of Kd has been reported for ATATATATGGGAGGACGATGCGGGCTGAAAGGAAACGGACGATTGAGCTTCCCCTTACCTCTCCAGACGACGAGCGGGAAAAAAAA [IL-7 pool 042 clone 5] in the records?
0.011
